experimental_details: Binding affinity to Zika virus NS2B-NS3 protease using Phac-Leu-Lys-Lys-Arg-AMC as substrate measured immediately upto 10 mins by fluorogenic assay
*1 amine or outer side, *2 acyl side, *3 side chain or, on linkers, in order; H or OH if unused. Where a SMILES comes first, the peptide text is derived from it. [ ]: non-standard residue; d: D form. X2 = N=C(N)N[C@H](CCOCN[*:1])C(=O)[*:2]; X1 = O=C([C@H](CN[*:1])Cc1ccccc1)[*:2]
endpoint_name: Ki
Write down the value, and be sure its unit follows.

Worked examples, 3 molecules total:
> print(dat)
                                   molecule  measured
1  N=C(N)N[C@@H]1CCOCNC(=O)[C@H](CCCCN)NC(=O)[C@H](CCCCN)NC(=O)[C@@H](CCc2ccccc2)NC(=O)CCNC(=O)CNC1=O   10.3 nM
2  N=C(N)N[C@@H]1CCOCNC(=O)[C@H](CCCCN)NC(=O)[C@H](CCCCN)NC(=O)[C@@H](c2ccccc2)NC(=O)CCNC(=O)CNC1=O   4.84 nM
3  N=C(N)N[C@@H]1CCOCNC(=O)[C@H](CCCCN)NC(=O)[C@H](CCCCN)NC(=O)[C@@H](Cc2ccccc2)CNC(=O)CNC(=O)CNC1=O (cyclo(GG[X1]KK[X2]))     63 nM

As a next step, examine the molecule that follows.
stdin: For the molecule shown here, CC(C)C[C@@H]1NC(=O)CCNC(=O)CNC(=O)[C@H](NC(=N)N)CCOCNC(=O)[C@H](CCCCN)NC(=O)[C@H](CCCCN)NC1=O , give the reported Ki.
stdout: 124 nM

* * *

So I've got a bunch of compounds here, and I need their Ki values.
experimental_details: Binding affinity to West Nile virus NSB2 (52 to 96 amino acids)-NS3 (1 to 184 amino acids) protease using Phac-Leu-Lys-Lys-Arg-AMC as substrate measured immediately upto 10 mins by fluorogenic assay
*1 amine or outer side, *2 acyl side, *3 side chain or, on linkers, in order; H or OH if unused. Where a SMILES comes first, the peptide text is derived from it. [ ]: non-standard residue; d: D form. X2 = N=C(N)N[C@H](CCOCN[*:1])C(=O)[*:2]; X3 = O=C([C@@H](CN[*:1])Cc1ccccc1)[*:2]
Give bare numbers, in µM.

Provide reported Ki for each item, in the same order as listed.
1. N=C(N)N[C@@H]1CCOCNC(=O)[C@H](CCCCN)NC(=O)[C@H](CCCCN)NC(=O)[C@@H](CCc2ccccc2)NC(=O)CCNC(=O)CNC1=O
2. CC(C)[C@H]1NC(=O)[C@H](NC(=N)N)CCOCNC(=O)[C@H](CCCCN)NC(=O)[C@H](CCCCN)NC(=O)Cc2cccc(c2)CNC1=O
3. N=C(N)N[C@@H]1CCOCNC(=O)[C@H](CCCCN)NC(=O)[C@H](CCCCN)NC(=O)[C@@H](Cc2ccccc2)NC(=O)CNC(=O)CNC1=O (racemic)
4. N=C(N)N[C@@H]1CCOCNC(=O)[C@H](CCCCN)NC(=O)[C@H](CCCCN)NC(=O)[C@H](Cc2ccccc2)CNC(=O)CNC(=O)CNC1=O (cyclo(GG[X3]KK[X2]))

stdout:
[1.29, 0.439, 17.3, 6.49]

Taken from ChEMBL document CHEMBL5154892.
